Experiment: Volume of distribution at steady state in Beagle dog at 0.5 mg/kg,iv
Assay type: ADME, organism-based, Canis lupus familiaris
Details: in vivo, read-out: Vdss
measurementKind: Vd (L/kg)
Record the value in L/kg, omitting the unit from your answer.

// sample COc1nc(-c2ccc(Cl)cc2)ccc1[C@@H](c1ccccc1)[C@@](O)(CCN(C)C)c1cccc2ccccc12 , its Vd was 6.04

---

Test: AUC in Sprague-Dawley rat at 200 mg/kg,po measured after 12 days
Format: ADME, organism-based
Parameters: time 12 day, dose 200 mg/kg, route po
Details: in vivo
measurementKind: AUC at 288 h (µM·h)
Record the value in µM·h, omitting the unit from your answer.

// sample COc1nc2ccc(Br)cc2cc1[C@@H](c1ccccc1)[C@@](O)(CCN(C)C)c1cccc2ccccc12 [BEDAQUILINE] , its AUC at 288 h was 109

---

Assay: Cytotoxicity against African green monkey Vero cells
Type: toxicity, cell-based
Conditions: chlorocebus sabaeus
measurementKind: CC50

// sample COc1nc(-c2ccc(C#N)cc2)ccc1[C@@H](c1ccccc1)[C@@](O)(CCN(C)C)c1cccc2ccccc12 , its CC50 was > 50 µg/mL

// sample COc1nc(C2CCCCC2)ccc1[C@@H](c1ccccc1)[C@@](O)(CCN(C)C)c1cccc2ccccc12 , its CC50 was 32.3 µg/mL

// sample COc1nc(-c2ccc(F)cc2)ccc1[C@@H](c1ccccc1)[C@@](O)(CCN(C)C)c1cccc2ccccc12 , its CC50 was > 50 µg/mL

// sample COc1nc(-c2ccsc2)ccc1[C@@H](c1ccccc1)[C@@](O)(CCN(C)C)c1cccc2ccccc12 , its CC50 was 24.4 µg/mL

// sample COc1nc(-c2cccc(Cl)c2)ccc1[C@@H](c1ccccc1)[C@@](O)(CCN(C)C)c1cccc2ccccc12 , its CC50 was > 50 µg/mL

// sample COc1ccc(-c2ccc([C@@H](c3ccccc3)[C@@](O)(CCN(C)C)c3cccc4ccccc34)c(OC)n2)cc1 , its CC50 was > 50 µg/mL

// sample COc1nc(-c2ccc(OC(F)(F)F)cc2)ccc1[C@@H](c1ccccc1)[C@@](O)(CCN(C)C)c1cccc2ccccc12 , its CC50 was > 50 µg/mL

// sample COc1ncc(-c2ccccc2)cc1[C@@H](c1ccccc1)[C@@](O)(CCN(C)C)c1cccc(F)c1F , its CC50 was > 50 µg/mL

// sample COc1nc(-c2cccc(F)c2)ccc1[C@@H](c1ccccc1)[C@@](O)(CCN(C)C)c1cccc2ccccc12 , its CC50 was > 50 µg/mL

// sample COc1nc(C2CCOCC2)ccc1[C@@H](c1ccccc1)[C@@](O)(CCN(C)C)c1cccc2ccccc12 , its CC50 was > 50 µg/mL

// sample COc1nc(-c2ccccc2Cl)ccc1[C@@H](c1ccccc1)[C@@](O)(CCN(C)C)c1cccc2ccccc12 , its CC50 was > 50 µg/mL

// sample COc1nc(-c2ccncc2)ccc1[C@@H](c1ccccc1)[C@@](O)(CCN(C)C)c1cccc2ccccc12 , its CC50 was > 50 µg/mL

---

Experiment: Cmax in Beagle dog at 2 mg/kg,po
Assay type: ADME, organism-based, Canis lupus familiaris
Design: dose 2 mg/kg, route po
Details: in vivo
measurementKind: Cmax (ng/mL)
Record the value in ng/mL, omitting the unit from your answer.

// sample COc1nc(-c2ccc(Cl)cc2)ccc1[C@@H](c1ccccc1)[C@@](O)(CCN(C)C)c1cccc2ccccc12 , its Cmax was 390

Measured values drawn from ChEMBL document CHEMBL5113423 for this set.
